target: human ether-à-go-go-related gene (hERG) potassium channel (human); assay: primary screen, population patch clamp on CHO cells stably expressing hERG; higher = less effect of the substance
Sequence (Q12809 whole entry, looked up): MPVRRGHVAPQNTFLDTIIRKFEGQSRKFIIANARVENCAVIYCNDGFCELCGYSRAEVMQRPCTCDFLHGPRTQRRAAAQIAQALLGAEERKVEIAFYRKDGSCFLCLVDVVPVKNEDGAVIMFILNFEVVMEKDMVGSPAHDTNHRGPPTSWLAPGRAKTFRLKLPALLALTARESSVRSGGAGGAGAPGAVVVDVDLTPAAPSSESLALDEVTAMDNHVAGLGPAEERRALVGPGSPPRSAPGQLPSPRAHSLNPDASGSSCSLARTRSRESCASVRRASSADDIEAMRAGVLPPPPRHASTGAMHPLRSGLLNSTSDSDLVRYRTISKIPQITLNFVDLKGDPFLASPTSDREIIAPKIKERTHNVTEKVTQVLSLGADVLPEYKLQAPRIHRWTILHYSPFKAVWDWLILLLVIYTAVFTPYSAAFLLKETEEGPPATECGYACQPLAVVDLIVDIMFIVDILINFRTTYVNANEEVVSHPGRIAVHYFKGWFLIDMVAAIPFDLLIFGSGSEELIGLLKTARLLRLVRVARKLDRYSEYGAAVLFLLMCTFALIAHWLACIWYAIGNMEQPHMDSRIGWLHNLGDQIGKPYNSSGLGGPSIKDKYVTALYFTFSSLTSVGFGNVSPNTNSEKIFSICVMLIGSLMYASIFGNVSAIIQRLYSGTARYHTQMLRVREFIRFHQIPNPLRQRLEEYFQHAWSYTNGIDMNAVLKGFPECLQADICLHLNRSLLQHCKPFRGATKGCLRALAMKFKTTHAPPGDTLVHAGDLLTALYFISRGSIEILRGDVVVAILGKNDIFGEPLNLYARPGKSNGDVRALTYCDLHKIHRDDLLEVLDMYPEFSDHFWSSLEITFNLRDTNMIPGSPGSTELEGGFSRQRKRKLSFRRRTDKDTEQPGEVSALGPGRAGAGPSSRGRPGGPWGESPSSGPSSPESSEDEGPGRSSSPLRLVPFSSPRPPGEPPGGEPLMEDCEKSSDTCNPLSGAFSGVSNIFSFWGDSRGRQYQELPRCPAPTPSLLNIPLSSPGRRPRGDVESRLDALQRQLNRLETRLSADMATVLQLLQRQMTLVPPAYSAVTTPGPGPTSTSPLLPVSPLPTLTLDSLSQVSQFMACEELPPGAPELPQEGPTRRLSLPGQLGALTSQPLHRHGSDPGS
Out of some 310,000 compounds screened, about 14,000 (4.5%) showed an effect of 50% or more. The effect is printed as a negative number. The list comes from a sample in which strong results are over-represented; it also holds close analogues and randomly drawn compounds.
Reported hERG current change (%, negative = inhibition) at 10uM values for the following molecules.
test_readout: hERG current change (%, negative = inhibition) at 10uM (%)

molecule: O=C(NCCOc1ccccc1)C1CCC(=O)N(CCc2ccc(Cl)cc2)C1 (stereo not shown)
target: human ether-à-go-go-related gene (hERG) potassium channel (human)
observed_value: -88.2

molecule: O=C(c1ccc(Br)o1)N1CCC(Cc2ccccc2)CC1
target: human ether-à-go-go-related gene (hERG) potassium channel (human)
observed_value: -10.5

molecule: CCSc1nnc(NC(=O)c2cccnc2Cl)s1
target: human ether-à-go-go-related gene (hERG) potassium channel (human)
observed_value: 16.3

molecule: O=C(O)Cc1ccc(NS(=O)(=O)c2ccccc2Cl)cc1
target: human ether-à-go-go-related gene (hERG) potassium channel (human)
observed_value: 24.4

molecule: CC12CCC(=O)N1c1ccccc1C(=O)N2c1ccccc1 (stereo not shown)
target: human ether-à-go-go-related gene (hERG) potassium channel (human)
observed_value: -9.9

molecule: COc1cccc(CCC(=O)N2CCC(n3nccc3NC(=O)C3CCOC3)CC2)c1 (stereo not shown)
target: human ether-à-go-go-related gene (hERG) potassium channel (human)
observed_value: 14.9

molecule: Cc1ccc(C)c(NC(=O)CN(C)C(=O)c2cccc(S(=O)(=O)N3CCN(Cc4ccccc4)CC3)c2)c1
target: human ether-à-go-go-related gene (hERG) potassium channel (human);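 note: peak tail current of the secondary pulse compared with the same well before compound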
observed_value: 9.47

molecule: O=C(NCCc1ccc(Cl)cc1)C1CC(=O)N(CCc2ccccc2)C1 (stereo not shown)
target: human ether-à-go-go-related gene (hERG) potassium channel (human);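 note: peak tail current of the secondary pulse compared with the same well before compound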
observed_value: -62

molecule: Cc1ccc(CCN2CC(C(=O)NCCc3ccccc3)CC2=O)cc1 (stereo not shown)
target: human ether-à-go-go-related gene (hERG) potassium channel (human);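 note: peak tail current of the secondary pulse compared with the same well before compound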
observed_value: -3.16

molecule: COc1cc(C(=O)OCC(=O)c2c[nH]c3ccccc23)ccc1OCC(=O)N1CCOCC1
target: human ether-à-go-go-related gene (hERG) potassium channel (human);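 note: peak tail current of the secondary pulse compared with the same well before compound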
observed_value: 5.92
